Biological target: T1, rat RXFP1 (rat, UniProt Q6R6I6 1-758)
T1 sequence (looked up): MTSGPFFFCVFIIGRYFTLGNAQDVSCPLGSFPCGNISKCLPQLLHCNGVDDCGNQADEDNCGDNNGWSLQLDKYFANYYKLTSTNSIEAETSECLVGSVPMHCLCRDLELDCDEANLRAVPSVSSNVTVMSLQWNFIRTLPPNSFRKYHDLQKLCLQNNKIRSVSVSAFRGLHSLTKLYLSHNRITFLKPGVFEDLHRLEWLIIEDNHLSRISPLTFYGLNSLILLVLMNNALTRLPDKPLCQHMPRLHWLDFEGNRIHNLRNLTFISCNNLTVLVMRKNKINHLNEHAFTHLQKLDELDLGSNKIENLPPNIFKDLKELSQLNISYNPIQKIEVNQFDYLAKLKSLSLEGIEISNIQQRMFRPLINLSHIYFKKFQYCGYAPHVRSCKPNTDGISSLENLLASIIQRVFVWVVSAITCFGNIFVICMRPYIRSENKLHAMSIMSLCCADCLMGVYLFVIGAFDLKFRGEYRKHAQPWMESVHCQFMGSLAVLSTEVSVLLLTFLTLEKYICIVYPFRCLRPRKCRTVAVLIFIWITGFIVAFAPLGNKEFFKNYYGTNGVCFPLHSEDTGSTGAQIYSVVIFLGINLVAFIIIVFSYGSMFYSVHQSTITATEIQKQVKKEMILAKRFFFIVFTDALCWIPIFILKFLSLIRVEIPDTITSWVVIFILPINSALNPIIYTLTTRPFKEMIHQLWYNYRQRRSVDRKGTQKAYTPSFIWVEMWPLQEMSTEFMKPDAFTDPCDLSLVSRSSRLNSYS
Assay: cell-based or functional assay
readoutType: Transient HEK293 rRXFP1 cAMP EC50 (nM)
Return type: number; implicit unit nM.

Item under review: SEQ ID NO: 86 (Fc fusion) DKTHTCPPCPAPEAAGGPSVFLFPPKPKDTLMISRTPEVTCVVVDVSHEDPEVKFNWYVDGVEVHNAKTKPREEQYNSTYRVVSVLTVLHQDWLNGKEYKCKVSNKALAAPIEKTISKAKGQPREPQVYTLPPSRDELTKNQVSLTCLVKGFYPSDIAVEWESNGQPENNYKTTPPVLDSDGSFFLYSKLTVDKSRWQQGNVFSCSVLHEALHSHYTQKSLSLSPGKGGSDSWQEEVIKLCGRELVRAQIAICGKSTASDAAGADADAGARQLYSALANKCCHVGCTKRSLAQFC . Reported Transient HEK293 rRXFP1 cAMP EC50?
24.5

Data provenance: patent US20250333467A1
